Recorded values, source patent US20250092109A1.

Measured Kd values are reported for all entries that follow.
assayed_system: T1, IL-2 (UniProt P60568 21-153)
T1 construct: also called interleukin 2
T1 sequence (P60568 21-153 limits assumed): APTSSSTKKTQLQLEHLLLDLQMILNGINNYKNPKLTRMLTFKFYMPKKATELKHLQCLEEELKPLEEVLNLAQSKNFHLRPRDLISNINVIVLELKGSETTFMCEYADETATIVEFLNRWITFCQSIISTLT
assay_details: SPR
quantity: Kd (nM)

- binder: "VHH6 (VHH, In the functional rows it stood as the masking moiety of construct C8; also called Q44G) VHH: EVQLVESGGGLVQPGGSLRLSCAASGSIFSINVMGWYRQAPGKGRELVAAISSGGSTNYADSVKGRFTISRDNAKNTVYLQMNSLKPEDTAVYYCMYASSWYEDETDYWGQGTQVTVSS"
  units_label: "nM"
  experimental_result: 0.00457
- binder: "VHH12 (VHH, In the functional rows it stood as the masking moiety of constructs C13 and C1; also called Q44G, M96A, W101Y) VHH: EVQLVESGGGLVQPGGSLRLSCAASGSIFSINVMGWYRQAPGKGRELVAAISSGGSTNYADSVKGRFTISRDNAKNTVYLQMNSLKPEDTAVYYCAYASSYYEDETDYWGQGTQVTVSS"
  units_label: "nM"
  experimental_result: 12.7
- binder: "VHH26 (VHH, In the functional rows it stood as the masking moiety of construct C10; also called I31S, M96A, W101Y) VHH: EVQLVESGGGLVQPGGSLRLSCAASGSIFSSNVMGWYRQAPGKQRELVAAISSGGSTNYADSVKGRFTISRDNAKNTVYLQMNSLKPEDTAVYYCAYASSYYEDETDYWGQGTQVTVSS"
  units_label: "nM"
  experimental_result: 1.35
- binder: "VHH9 (VHH, In the functional rows it stood as the masking moiety of construct C12; also called Q44G, M96A, W101F) VHH: EVQLVESGGGLVQPGGSLRLSCAASGSIFSINVMGWYRQAPGKGRELVAAISSGGSTNYADSVKGRFTISRDNAKNTVYLQMNSLKPEDTAVYYCAYASSFYEDETDYWGQGTQVTVSS"
  units_label: "nM"
  experimental_result: 10.9
- binder: "VHH1 (VHH, In the functional rows it stood as the masking moiety of constructs C7, C2, C4 and C6, fused to an Fc chain; also called Parental; parental anti-IL-2) VHH: EVQLVESGGGLVQPGGSLRLSCAASGSIFSINVMGWYRQAPGKQRELVAAISSGGSTNYADSVKGRFTISRDNAKNTVYLQMNSLKPEDTAVYYCMYASSWYEDETDYWGQGTQVTVSS"
  units_label: "nM"
  experimental_result: 0.0601
